Recorded values, source the supplement of paper PMC10065799.

Target: Jak2 (UniProt O60674)
Sequence (O60674 whole entry, looked up): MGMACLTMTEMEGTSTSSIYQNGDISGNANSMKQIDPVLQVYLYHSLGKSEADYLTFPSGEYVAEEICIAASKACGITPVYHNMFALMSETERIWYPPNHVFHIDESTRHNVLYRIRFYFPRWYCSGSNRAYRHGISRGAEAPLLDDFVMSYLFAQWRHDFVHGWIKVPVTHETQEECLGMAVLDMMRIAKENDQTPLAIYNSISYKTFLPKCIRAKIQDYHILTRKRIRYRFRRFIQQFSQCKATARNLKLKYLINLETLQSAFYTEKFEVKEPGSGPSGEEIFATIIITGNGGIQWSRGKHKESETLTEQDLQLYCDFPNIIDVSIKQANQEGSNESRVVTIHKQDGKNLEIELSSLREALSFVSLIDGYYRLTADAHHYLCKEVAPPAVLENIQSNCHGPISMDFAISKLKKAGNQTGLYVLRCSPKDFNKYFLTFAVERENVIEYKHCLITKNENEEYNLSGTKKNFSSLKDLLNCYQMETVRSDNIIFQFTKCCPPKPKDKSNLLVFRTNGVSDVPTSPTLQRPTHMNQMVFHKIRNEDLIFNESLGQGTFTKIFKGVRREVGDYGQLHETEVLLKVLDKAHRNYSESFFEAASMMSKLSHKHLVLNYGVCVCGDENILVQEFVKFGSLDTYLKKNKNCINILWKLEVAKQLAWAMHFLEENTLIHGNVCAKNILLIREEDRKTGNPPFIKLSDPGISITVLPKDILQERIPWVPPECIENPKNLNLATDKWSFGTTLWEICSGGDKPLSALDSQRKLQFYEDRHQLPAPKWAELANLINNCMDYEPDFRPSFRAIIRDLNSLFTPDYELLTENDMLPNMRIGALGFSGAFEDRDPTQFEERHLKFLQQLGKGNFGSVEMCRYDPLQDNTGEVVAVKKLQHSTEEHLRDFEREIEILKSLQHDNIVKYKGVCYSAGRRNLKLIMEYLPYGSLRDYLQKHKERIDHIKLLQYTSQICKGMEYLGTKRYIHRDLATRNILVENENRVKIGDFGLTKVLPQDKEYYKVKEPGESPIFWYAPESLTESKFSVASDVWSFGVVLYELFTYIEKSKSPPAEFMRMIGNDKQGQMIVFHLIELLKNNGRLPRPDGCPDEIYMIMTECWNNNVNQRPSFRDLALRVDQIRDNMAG
Assay: phosphorylation enrichment, bacterial display (enrichment ratio); higher = better substrate or ligand; peptides without Tyr show the background

MACROMOLECULE SEQUENCE: ANQDDYISFRH [IMP4_Y226]
phosphorylation enrichment: 0.901
//
MACROMOLECULE SEQUENCE: WGTPEYDSVVA [MAP1A_Y1883_A1881P]
phosphorylation enrichment: 0.895
//
MACROMOLECULE SEQUENCE: DFSLKYATDIP [APC_Y1183_YF]
phosphorylation enrichment: 0.897

---

Molecular target: Grb2 SH2 (UniProt P62993)
Sequence (P62993 whole entry, looked up): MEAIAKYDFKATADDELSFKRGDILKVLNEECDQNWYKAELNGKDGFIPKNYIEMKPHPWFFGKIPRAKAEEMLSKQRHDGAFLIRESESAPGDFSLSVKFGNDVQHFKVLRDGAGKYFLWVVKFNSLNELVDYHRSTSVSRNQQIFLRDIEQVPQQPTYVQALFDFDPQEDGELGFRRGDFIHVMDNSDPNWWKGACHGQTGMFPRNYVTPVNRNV
Assay: SH2 binding enrichment of the phosphorylated peptide, bacterial display (enrichment ratio); higher = better substrate or ligand; peptides without Tyr show the background
The following sequences are shown together with reported SH2 binding enrichment values.

MACROMOLECULE SEQUENCE: WHYTFYNELRV [ACTC1_Y93_H90Y]
SH2 binding enrichment: 0.992
//
MACROMOLECULE SEQUENCE: FSGKAYADEER [CRIM1_Y826]
SH2 binding enrichment: 1
//
MACROMOLECULE SEQUENCE: GVIRHSVVCST [BTK_Y334_Y334S]
SH2 binding enrichment: 0.996
//
MACROMOLECULE SEQUENCE: EYKKKYSDADI [CKAP5_Y1860]
SH2 binding enrichment: 0.819
//
MACROMOLECULE SEQUENCE: CERFSYFGMKA [SLC15A2_Y60_YF]
SH2 binding enrichment: 1.02
//
MACROMOLECULE SEQUENCE: TLKDVYDDGKF [RPS6KA3_Y483_YF]
SH2 binding enrichment: 0.781
//
MACROMOLECULE SEQUENCE: RRIHNYRGHLW [VHL_Y112_S111N]
SH2 binding enrichment: 1.01
//
MACROMOLECULE SEQUENCE: EPSVPYRGTVF [GLI3_Y104]
SH2 binding enrichment: 0.803
